# assayDetails: Human HepG2 cell viability assay in 384 well format
# Assay type: toxicity, cell-based
# Parameters: dose 125 nL, time 70.5 hour; concentration not given beside the values
# conditions: HepG2 cells, read-out: Inhibition
Quick reference: cytotoxicity at 70.5 h of the listed items.

| compound | cytotoxicity at 70.5 h (%) |
| --- | --- |
| CCS(=O)(=O)N1CCCCC1c1nc(C(C)C)no1 (stereo not drawn) | 7.03 |
| COc1ccc(C(=O)N(c2ccc(OC)c(F)c2)C(C)C)cn1 | -2.91 |
| COCc1noc(CN2CC(=O)N(C)c3ccccc3C2=O)n1 | 0.208 |
| Cc1nc(C)c(C(C)NCc2cnc(N3CCOCC3)nc2)s1 (stereo not drawn) | 19.8 |
| O=C(CSc1ccc(Br)cc1)NS(=O)(=O)c1ccc2c(c1)OCCO2 | 4.15 |
| Cc1cn(Cc2ccc(F)c(F)c2)nc1N | 19.5 |
| O=C(c1ccc(Cl)cc1F)N1CCC(Cn2cc(CO)nn2)CC1 | -5.57 |
| CC(=O)N1CC2(CCNCC2)c2cc(C)ccc21 | 20.4 |
| CC(=O)N1CCCCC1c1nc2c(c(N3CCCCC3)n1)CN(C)CC2 (stereo not drawn) | -1.02 |
| CN1CCC(CCc2ccnc(NC(=O)c3ccccn3)c2)CC1 | 15.4 |
| CC(C)C(C)N1Cc2cccc(NCC(=O)N(C)C)c2C1 (stereo not drawn) | -8.25 |
| COc1ccc2oc(-c3cn(C)nc3C)c(O)c(=O)c2c1 | -1.34 |
| COCc1ccc(C(=O)N2CCC(c3nccn3CC3CC3)CC2)o1 | -0.956 |

---

Quick reference: cytotoxicity at 70.5 h of the listed items.
# assayDetails: Human HepG2 cell viability assay in 384 well format
# Assay type: toxicity, cell-based
# Set-up: dose 125 nL, time 70.5 hour; concentration not given beside the values
# conditions: HepG2 cells, read-out: Inhibition

| molecule | cytotoxicity at 70.5 h, % |
| --- | --- |
| C[C@H]1C(=O)NC[C@H]2CN(Cc3cccc(F)c3)C[C@H]21 | -8.78 |
| O=C(NCC1CCOCC1)[C@H]1C[C@@H]2CCN(Cc3ccncc3)C[C@@H]2O1 | -1.08 |
| C1=C(CNC2CCc3ncnn3C2)COc2ccccc21 (stereo unspecified) | -9.66 |
| CN(c1ncnc2c1cnn2C)C1CCCN(c2cccnn2)C1 (stereo unspecified) | 0.765 |
| CC(NC(=O)C1CCN(C(C)C)CC1)c1nncn1C1CCCC1 (stereo unspecified) | -4.33 |
| Cn1ccc(C(=O)N(CC(F)(F)F)c2cccc(Cl)c2)cc1=O | 11.6 |
| Cn1cnc2c1CCN(Cc1nc(Cc3ccccc3)no1)C2 | -3.21 |
| CC(=O)NCCNC(=O)c1cnc(-c2ccc(C)cc2C)s1 | -6.99 |
| COc1ccc(S(=O)(=O)NCCC(O)c2ccoc2)c(C)c1 (stereo unspecified) | -5.52 |
| c1ccc(-c2nc(CCNCc3cccnc3)co2)cc1 | -4.67 |
| Cc1cccnc1CN1CCN(Cc2ccc(-c3cc[nH]n3)o2)CC1 | -7.65 |
| COc1ccc(-c2cnc(CN3CCCC3CO)o2)cc1 (stereo unspecified) | 7.93 |
| CSCCC(=O)N1CCCC(c2ncc[nH]2)C1 (stereo unspecified) | -21.7 |
| CCN(CC)CCn1cc(NC(=O)CNc2ccccc2OC)cn1 | 7.01 |
| CSc1ccccc1NC(=O)CCC(=O)N(C)C1CCN(C)CC1 | -0.551 |
| Cc1nn(C)c(C)c1CCC(=O)Nc1cccn(C)c1=O | -3.26 |
| CC(C)c1cc(C(=O)N2C[C@H]3CC[C@@H]2CN(Cc2cccnc2)C3)no1 | -12.5 |
| Cc1nnc(CNC(=O)CC2CCc3ccccc32)o1 (stereo unspecified) | 25.8 |
| COCC1CCN(C(=O)c2cccc(S(=O)(=O)NC3CCCC3)c2)C1 (stereo unspecified) | -6.74 |
| Cc1ccsc1CN(C)C(=O)c1cc2c([nH]c1=O)CCCC2=O | -7.76 |
| Cc1noc([C@@H]2C[C@H]3OCC[C@H]3N(Cc3sccc3C)C2)n1 | 4.03 |
